C. glabrata LMDM 34 data, read-out MIC
Answer format: number, then unit.

Recorded MIC for CC[C@H](C)C[C@H](C)CCCCCCCCC(=O)N[C@H]1C[C@@H](O)[C@@H](NCCN)NC(=O)[C@@H]2[C@@H](O)CCN2C(=O)[C@H]([C@H](O)CCN)NC(=O)[C@H]([C@H](O)[C@@H](O)c2ccc(O)cc2)NC(=O)[C@@H]2C[C@@H](O)CN2C(=O)[C@H]([C@@H](C)O)NC1=O with C. glabrata LMDM 34, please?
8 µg/mL

###

Known CC50 at 24 h of a selection of compounds
test: Cytotoxicity, MTT assay; settings: human, HaCaT keratinocyte cells
# value in µg/mL; strip the unit string

Completed entries (count: 2):
Cc1ccc(C(C)C)c(O)c1 428
Cc1ccc(C(C)C)cc1O 411

Here is the next item to consider.
Entry under review: Cc1ccc(C(C)C)cc1 . Reported CC50 at 24 h?
831
